# assaySummary: AUC (0 to 24 hrs) in male Sprague-Dawley rat at 2 mg/kg, iv administered via tail vein by LC-MS/MS analysis
# Assay type: ADME, organism-based
# appliedConditions: in vivo
recordedMetric: AUC(0-t) (ng·h/mL)
Kindly provide the numeric value in ng·h/mL only, without the unit symbol.

// returns reported AUC(0-t) for input COc1cc(C2NCCc3c2[nH]c2ccccc32)ccc1OCc1cc(C(F)(F)F)cc(C(F)(F)F)c1 (stereo unspecified)
1280

====

# assaySummary: Clearance in male Sprague-Dawley rat at 2 mg/kg, iv administered via tail vein by LC-MS/MS analysis
# Format: ADME, organism-based
# appliedConditions: in vivo
recordedMetric: clearance (mL/min/kg)
Kindly provide the numeric value in mL/min/kg only, without the unit symbol.

// returns reported clearance for input COc1cc(C2NCCc3c2[nH]c2ccccc32)ccc1OCc1cc(C(F)(F)F)cc(C(F)(F)F)c1 (stereo unspecified)
25

====

# systemUnderTest: Protein arginine N-methyltransferase 1 (Homo sapiens, UniProt Q99873)
# Sequence (Q99873 whole entry): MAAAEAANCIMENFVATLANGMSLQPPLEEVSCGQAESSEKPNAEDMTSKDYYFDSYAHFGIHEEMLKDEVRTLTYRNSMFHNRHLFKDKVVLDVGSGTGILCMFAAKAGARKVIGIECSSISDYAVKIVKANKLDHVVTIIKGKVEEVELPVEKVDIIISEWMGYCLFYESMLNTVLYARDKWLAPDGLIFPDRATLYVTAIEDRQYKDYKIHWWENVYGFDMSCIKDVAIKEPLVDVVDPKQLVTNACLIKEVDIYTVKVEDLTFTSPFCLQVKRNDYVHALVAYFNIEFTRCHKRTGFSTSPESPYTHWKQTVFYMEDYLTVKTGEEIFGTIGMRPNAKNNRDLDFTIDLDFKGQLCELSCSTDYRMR
recordedMetric: IC50

Test system Protein arginine N-methyltransferase 1 (Homo sapiens, UniProt Q99873); read-out IC50; what value for COc1cc(C2NCCc3c2[nH]c2ccccc32)ccc1OCc1cc(C(F)(F)F)cc(C(F)(F)F)c1 (stereo unspecified) ?
> 100 µM

====

# systemUnderTest: Epidermal growth factor receptor (Homo sapiens, UniProt P00533)
# Sequence (P00533 whole entry, the tested form may be a part): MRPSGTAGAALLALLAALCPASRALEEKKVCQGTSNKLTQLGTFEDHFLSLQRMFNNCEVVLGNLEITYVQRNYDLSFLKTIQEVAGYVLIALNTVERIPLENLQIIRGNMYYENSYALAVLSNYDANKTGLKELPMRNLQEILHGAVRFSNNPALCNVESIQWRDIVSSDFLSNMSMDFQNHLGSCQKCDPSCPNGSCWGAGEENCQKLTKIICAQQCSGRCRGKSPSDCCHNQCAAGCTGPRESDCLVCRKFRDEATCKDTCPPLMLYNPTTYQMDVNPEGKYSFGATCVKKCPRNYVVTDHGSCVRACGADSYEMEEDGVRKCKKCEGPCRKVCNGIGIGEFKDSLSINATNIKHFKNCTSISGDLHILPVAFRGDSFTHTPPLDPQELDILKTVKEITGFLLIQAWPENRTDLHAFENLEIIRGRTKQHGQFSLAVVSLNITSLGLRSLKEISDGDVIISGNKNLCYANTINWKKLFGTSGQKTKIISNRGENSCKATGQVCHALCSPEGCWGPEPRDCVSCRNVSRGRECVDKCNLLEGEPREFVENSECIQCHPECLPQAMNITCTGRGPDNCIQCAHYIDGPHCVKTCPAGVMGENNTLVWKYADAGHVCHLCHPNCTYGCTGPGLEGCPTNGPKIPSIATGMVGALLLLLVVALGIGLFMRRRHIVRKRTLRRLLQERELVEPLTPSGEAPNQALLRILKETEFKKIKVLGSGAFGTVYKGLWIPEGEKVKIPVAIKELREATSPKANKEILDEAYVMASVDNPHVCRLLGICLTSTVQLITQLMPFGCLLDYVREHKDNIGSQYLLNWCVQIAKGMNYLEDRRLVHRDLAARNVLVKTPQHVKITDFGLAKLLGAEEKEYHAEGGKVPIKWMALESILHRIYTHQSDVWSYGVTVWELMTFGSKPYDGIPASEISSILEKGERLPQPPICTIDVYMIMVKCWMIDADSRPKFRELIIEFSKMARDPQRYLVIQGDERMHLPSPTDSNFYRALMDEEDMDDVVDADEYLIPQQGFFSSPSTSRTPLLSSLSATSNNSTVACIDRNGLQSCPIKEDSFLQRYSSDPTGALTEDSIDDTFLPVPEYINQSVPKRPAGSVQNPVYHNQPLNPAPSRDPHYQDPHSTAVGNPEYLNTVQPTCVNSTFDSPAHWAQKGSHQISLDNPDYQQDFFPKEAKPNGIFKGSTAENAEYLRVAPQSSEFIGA
# assaySummary: Inhibition of wild type GST-tagged EGFR catalytic domain (unknown origin) expressed in insect cells using poly(Glu-Tyr) as substrate incubated for 6 mins by ELISA
Below, each entry is listed with its recorded pIC50.
In simple prose, pIC50 is minus the logarithm base ten of a concentration in moles per litre.

Examples with answers:
>>> df
                                   compound  numericvalue
0  COc1cc(C2c3[nH]c4ccccc4c3CCN2C)ccc1OC(=O)c1ccccc1 (stereo not given)          4.06
1  COc1cc(C2NCCc3c2[nH]c2ccccc32)ccc1OCc1ccc(F)c(Br)c1 (stereo not given)          4.29

// returns reported pIC50 for input COc1cc(C2NCCc3c2[nH]c2ccccc32)ccc1OC(=O)c1ccccc1 (stereo not given)
4.37

// returns reported pIC50 for input COc1cc(C2NCCc3c2[nH]c2ccccc32)ccc1OCc1ccc(C(C)(C)C)cc1 (stereo not given)
4.60

// returns reported pIC50 for input O=C(Nc1ccc(C2NCCc3c2[nH]c2ccccc32)cc1)c1cccc([N+](=O)[O-])c1 (stereo not given)
4.22

====

# assaySummary: Clearance in male Sprague-Dawley rat at 10 mg/kg, po administered as single dose by LC-MS/MS analysis
# Format: ADME, organism-based
# appliedConditions: in vivo
recordedMetric: CL/F (mL/min/kg)
Kindly provide the numeric value in mL/min/kg only, without the unit symbol.

// returns reported CL/F for input COc1cc(C2NCCc3c2[nH]c2ccccc32)ccc1OCc1cc(C(F)(F)F)cc(C(F)(F)F)c1 (stereo unspecified)
78.3

====

# assaySummary: AUC (0 to 24 hrs) in male Sprague-Dawley rat at 10 mg/kg, po administered as single dose by LC-MS/MS analysis
# Assay type: ADME, organism-based
# appliedConditions: in vivo
recordedMetric: AUC(0-t) (ng·h/mL)
Kindly provide the numeric value in ng·h/mL only, without the unit symbol.

// returns reported AUC(0-t) for input COc1cc(C2NCCc3c2[nH]c2ccccc32)ccc1OCc1cc(C(F)(F)F)cc(C(F)(F)F)c1 (stereo unspecified)
1960
